Attribution: a melting point compilation (Tetko et al.; mined from patent text by program, amines drawn as free bases though some values may be those of a salt)

Examples of compounds with documented melting point follow.
// return numeric value only (unit: °C, not printed)

Worked set:
CC(=O)c1cnc(Cl)c(Cl)c1 | 80
CCC(C(N)=O)N(Cc1ccc2nc(NCCCN3CCOCC3)n(Cc3nc(C)ccc3OC)c2c1)c1cc(C)cc(C)c1 (stereo not given) | 130
COc1ccc(N2C(=O)[C@@H](OC(C)=O)[C@H]2c2ccccc2)cc1 (relative stereo) | 163
COCOc1ccc(C=O)c(OCc2ccc(Cl)cc2Cl)c1C | 128

Enquiry: # get_value(readout='melting point', item= Nc1ncccc1CNC(=O)C1Cc2ccccc2N1S(=O)(=O)c1ccc(-c2cccc(C(F)(F)F)c2)cc1 (stereo not given) )
Return: 94

* * *

REPORTED METRIC: melting point

Enquiry: # get_value(readout='melting point', item= `CN(C)C=Cc1ncc([N+](=O)[O-])n1CCN(C)C` )
Return: 81 to 82 °C

Enquiry: // repeat for `COc1ccc(-c2cc(C(N)=O)c(=O)n(CC=Cc3ccc(Cl)cc3)n2)cc1` and report
Return: 195 to 196 °C

Enquiry: // repeat for `COC(=O)CC[C@H](NC(=O)c1ccc(C#Cn2cnc3nc(C)c(OC(=O)C(C)(C)C)c-3c2O)cc1)C(=O)OC` and report
Return: 163 °C

Enquiry: // repeat for O=C(CCCN1CCCC1)NC(Cc1c[nH]c2ccccc12)C(=O)CCc1cc(C(F)(F)F)cc(C(F)(F)F)c1 (centres undefined) and report
Return: 99 to 100 °C

* * *

REPORTED METRIC: melting point

Worked set:
CCOC(=O)c1ccc(OCCOc2ccc(-c3onc(SC)c3C#N)cc2)cc1 | 162 to 164 °C
CC(C)(CNC1(c2ccccc2Cl)C(=O)Nc2ccc(Cl)cc21)NC(=O)OC(C)(C)C (stereo unspecified) | 164 °C
C[C@H](NC(=O)c1c[nH]c2ncc(-c3cn(-c4cc(Cl)ccc4F)cn3)nc12)C(C)(C)C | 337 to 339 °C
Cc1cc(-c2cn[nH]c2N)cc(C)n1 | 222 °C
O=C1Nc2ccccc2C(c2ccccc2)N1C1CCN(Cc2ccccc2)CC1 (stereo unspecified) | 199 to 200 °C

Enquiry: # get_value(readout='melting point', item= Cc1cc(S(C)(=O)=O)ccc1C(=O)c1c(S(C)=O)noc1C1CC1 (stereo unspecified) )
Return: 142 °C

Enquiry: // repeat for CCCCCC1CCC(c2ccc(-c3cc(F)c(N)cc3F)cc2)CC1 (stereo unspecified) and report
Return: 68.3 to 70.4 °C

Enquiry: // repeat for Cc1nc(N2CC(Cc3ccccc3)CC2=O)sc1C(=O)NCc1ccccc1 (stereo unspecified) and report
Return: 143 to 144 °C

Enquiry: // repeat for `O=C(C=Cc1ccccc1)c1c(Cl)cccc1Cl` and report
Return: 98.2 to 99.2 °C

Enquiry: // repeat for `O=Cc1ccccc1Oc1ccc(F)cc1[N+](=O)[O-]` and report
Return: 94 to 95 °C

Enquiry: // repeat for `CCn1c2ccccc2n2c(=O)c(C(=O)N3CCOCC3)cnc12` and report
Return: 200 to 202 °C

Enquiry: // repeat for `COc1ccc(CCNC(=O)CCCCC(=O)NC2Cc3ccccc3C2)cc1OC` and report
Return: 162 to 164 °C

* * *

REPORTED METRIC: melting point

O=c1c(Cl)c(N2CCC(c3ccccc3)CC2)ccn1Cc1ccc(OC(F)(F)F)cc1 | 169 °C
Cn1cnc(S(=O)(=O)N2CCSCC2)c1 | 154 to 155 °C
[N-]=[N+]=Nc1cccc2c1C(=O)N(CCCCCC(=O)Cl)C2=O | 68 to 69 °C
CCC(=O)/C=C/c1cn(-c2ccccc2)nc1OCc1ccc(OCc2nc(-c3ccco3)oc2C)c(OC)c1 | 167 to 168 °C
CCN1CCc2ccc(Nc3ncc(Cl)c(NCC(C)(C)NS(C)(=O)=O)n3)cc2CC1 | 118 to 121 °C
O=C(NC(=O)C(c1ccccc1)c1ccccc1)OCC(F)(F)F | 125 to 127 °C
CCN1C(=O)C(C)Oc2ccc(-n3c(=O)cc(C(F)(F)F)n(C)c3=O)cc21 (centres undefined) | 221 to 222 °C
O=C1NC(=O)C2(CCOc3c([N+](=O)[O-])cc(F)cc32)S1 (centres undefined) | 192 to 194 °C

Moving on to another compound below.
Enquiry: # get_value(readout='melting point', item= CCC(C)c1ccccc1SC1=C(O)CC(c2ccccc2)(c2ccccc2)OC1=O (centres undefined) )
Return: 161 to 162 °C

* * *

REPORTED METRIC: melting point

Worked set:
CCn1c(CNc2ccncc2)nc2c(C#N)nc(-c3cccc(C(F)(F)F)c3)cc21 | 340 °C
CN1C(=O)CC[C@]2(C)c3ccc(-c4cccc(NC(=O)C(C)(C)C)c4)cc3CC[C@@H]12 | 95 to 98 °C
Fc1cnc(Nc2nc3c(s2)CCN(CCCN2CCC(F)(F)CC2)c2n[nH]cc2-3)nc1 | 238 to 240 °C

Moving on to another compound below.
Enquiry: # get_value(readout='melting point', item= COCC(=O)NCCC1CCCc2ccc(OC)cc21 (single isomer, unassigned; (-)) )
Return: 58 to 60 °C

* * *

Examples of molecules with documented melting point follow.

Worked set:
CC(=O)c1cc(C#N)c(=O)[nH]c1-c1ccncc1 | 255 to 257 °C
C/C=C/C(=O)N1C(=O)OC(C)(C)[C@H]1c1ccccc1 | 104 °C
CCOC(=O)C(C)(C)Sc1ccc(OCCn2c(C)nc3ccccc3c2=O)cc1 | 188 to 190 °C
COc1ccc(C=O)c(Br)c1Oc1ccc([N+](=O)[O-])cc1 | 115 to 117 °C
CC(=O)N1C=CC(C(C)=O)(c2ccccc2)C=C1 | 93 to 95 °C

Enquiry: # get_value(readout='melting point', item= `CCCCCc1c(-c2ccc3c(Br)c(O)ccc3c2)oc2ccccc12` )
Return: 75 to 77 °C

Enquiry: // repeat for `CCCS(=O)(=O)Nc1ccc(Sc2c(O)c3c(=O)n(-c4ccccc4)c4ccccc4c3oc2=O)cc1` and report
Return: 249 to 251 °C

Enquiry: // repeat for `OCc1cc2ccccc2[nH]1` and report
Return: 73.5 to 74.4 °C

Enquiry: // repeat for COc1ccc(CCN(C(C)=O)c2c(C)c(C)c3c(c2C)C(c2ccc(C(C)C)cc2)C(C)(C)O3)cc1 (configuration not stated) and report
Return: 134 to 136 °C

* * *

REPORTED METRIC: melting point

Worked set:
O=C1NCCc2ccc(OCCCCN3CCN(c4cccc5c4CCC5)CC3)nc2N1 | 70 to 72 °C
NS(=O)(=O)c1ccc(-c2cc(-c3c[nH]nc3-c3ccccn3)ccc2F)cc1 | 128 °C
CCN(CC)C(=O)c1cccc(C=O)c1 | 115 to 119 °C
Cn1c2ccc(Cl)cc2c2c(CO)nn(-c3ccccc3)c(=O)c21 | 278 to 280 °C
Fc1ccc2[nH]cc(C3=CCN(CC4COc5ccc6c(c5O4)CCCO6)CC3)c2c1 (stereo not given) | 205 to 206 °C

Enquiry: # get_value(readout='melting point', item= `Cc1ccc(S(=O)(=O)n2c(=O)[nH]c3cc(Cl)ccc3c2=O)cc1C` )
Return: > 250 °C

Enquiry: // repeat for `CCCOc1ccc(S(=O)(=O)N2CCN(CC)CC2)cc1-c1nc2cc3ncn(Cc4ccccc4OC)c3cc2c(=O)[nH]1` and report
Return: 180 to 182 °C

Enquiry: // repeat for COC(C(=O)O)c1nn(-c2ccccc2)c2c1CCC2 (stereo not given) and report
Return: 106 to 107 °C

Enquiry: // repeat for CC1(C)c2ccccc2N2Cc3cc(N=Nc4ccc([N+](=O)[O-])cc4)ccc3OC21c1ccccc1 (stereo not given) and report
Return: 200 °C

* * *

Examples of molecules with documented melting point follow.

CCCCCCCCCCCCCCCCCCOc1ccc([N+](=O)[O-])cc1[N+](=O)[O-] | 63.5 to 64 °C
Cc1cn(-c2nc(Nc3cccc(NS(C)(=O)=O)c3)nc3[nH]cnc23)cn1 | 298 to 301 °C
COc1cc(-n2ccc(C)n2)ccc1C(=O)N1Cc2ccc(CN(C)C)n2Cc2ccccc21 | 196 to 198 °C

Enquiry: # get_value(readout='melting point', item= Cc1oc(-c2ccccc2)nc1CCOc1ccc(CC(C)(C(=O)O)n2ccc(Br)c2)cc1 (stereo not given) )
Return: 158 to 159 °C

Enquiry: // repeat for `COc1ccc(-n2nc(C(C)C)cc2-c2ccc(OCCNC(N)=O)cc2)cn1` and report
Return: 106 to 107 °C

Enquiry: // repeat for COC(=O)c1cc(CC(C)NCC(O)c2ccc(O)c(CO)c2)ccc1OC (stereo not given) and report
Return: 69 to 73 °C

Enquiry: // repeat for `O=C1CC(Nc2ccc([N+](=O)[O-])cc2)=NN1c1c(Cl)cc(Cl)cc1Cl` and report
Return: 295 to 298 °C

Enquiry: // repeat for `CCN(c1nc2ccccc2c(=O)o1)c1ccccc1I` and report
Return: 129 to 130 °C
